Taken from ChEMBL document CHEMBL4689842.

Tested on: HEK-293T
MEASUREMENT_NOTES: Multiplex assay against HEK293T
Assay type: toxicity, cell-based
CONDITION_PARAMETERS: human, 12 h, 1 µM, compound concentration 1 uM, replicate 2
Kindly state Total Cell Count for each of the entries shown.
Answers are plain numbers.

Below, 3 compounds whose answers are already recorded.
COMPOUND	Total Cell Count
COc1cc2ncn(-c3cc(OCc4ccccc4C(F)(F)F)c(C(N)=O)s3)c2cc1OC [GW843682X]	208
COC(=O)C1=C(C)NC(C)=C(C(=O)OCCCN2CCC(c3ccccc3)(c3ccccc3)CC2)[C@H]1c1cccc([N+](=O)[O-])c1	177
CC(C)(C)NC[C@H](O)COc1nsnc1N1CCOCC1	280

Identify Total Cell Count associated with the compound "CN1CCN(Cc2ccc(Nc3ncc(Cl)c(Nc4ccccc4S(=O)(=O)N(C)C)n3)cc2)CC1"
174
